# Tested on: Plasmodium berghei
# test: Luciferase/luciferin-expressing antifolate-resistant parasites were used to infect a culture of HepG2 cells that were pre-incubated with compounds. Infected hepatocytes emit light due to the luciferase reaction. Assay results are presented as the percent inhibition of light emission compared to control. […]
# Type: functional
# condition.set: sporozoite, read-out: LUCIFERASE INFECTION ASSAY - IC90

{"columns": ["compound", "assay.system", "IC90"],
 "data": [
  ["Cc1cc2ccccn2c1C(=O)c1ccccc1Br", "Plasmodium berghei", "> 10 µM"],
  ["O=C(CN1C(=O)NC2(CCCCC2)C1=O)NC1CCS(=O)(=O)C1 (stereo not given)", "Plasmodium berghei", "> 10 µM"],
  ["CCN1CCN(c2ccc(NC(=O)c3csc(COc4ccc(F)cc4)n3)c(C)c2)CC1", "Plasmodium berghei", "4.43 µM"],
  ["CCc1nnc(Sc2ncnc3ccsc23)[nH]1", "Plasmodium berghei", "> 10 µM"],
  ["CCn1c(NC(=O)c2[nH]nc3ccccc23)nc2ccccc21", "Plasmodium berghei", "> 10 µM"],
  ["CCOc1cc(N2CCOCC2)c(OCC)cc1NC(=O)c1n[nH]c(=O)c2ccccc12", "Plasmodium berghei", "> 10 µM"],
  ["CSc1nccc(-c2sc(SC)c3c2CCCC3=O)n1", "Plasmodium berghei", "> 10.2 µM"],
  ["N#Cc1c(Cl)cccc1N1CCC(C#N)CC1", "Plasmodium berghei", "> 13.4 µM"],
  ["Cn1nc(-c2ccc(Cl)cc2)cc1N", "Plasmodium berghei", "> 15.9 µM"],
  ["CCC(C)c1ccc(NC(=O)CN(Cc2ccccc2)S(=O)(=O)c2ccc(C)c(C)c2)cc1 (stereo not given)", "Plasmodium berghei", "> 10 µM"],
  ["Cc1cnc(-c2nc(-c3ccccc3)c3n2CCN(Cc2ccc(C4CCCCO4)s2)C3)cn1 (stereo not given)", "Plasmodium berghei", "> 7 µM"],
  ["CC(C)[C@H](NC(=O)c1ccc(Cl)cc1)C(=O)OCC(=O)NCCc1ccc(S(N)(=O)=O)cc1", "Plasmodium berghei", "> 10 µM"],
  ["O=C(OCc1cccc2ccccc12)C1(c2ccccc2)CCN(S(=O)(=O)c2ccccc2)CC1", "Plasmodium berghei", "> 10 µM"],
  ["Nc1ncc(-c2cccc(O)c2)cc1-c1cccc(C(F)(F)F)c1", "Plasmodium berghei", "3.76 µM"],
  ["COc1ccc(-c2cnc3cnc(-c4cccs4)cn23)cc1", "Plasmodium berghei", "8.31 µM"],
  ["NC(Cc1ccc(F)cc1)c1csc(NC(=O)c2ccc(F)c(Cl)c2)n1 (stereo not given)", "Plasmodium berghei", "5.68 µM"],
  ["COc1ccc(-c2cnc3cnc(-c4ccc(C(=O)NC5CC5)cc4)cn23)cc1", "Plasmodium berghei", "3.59 µM"],
  ["Cc1ccc(S(=O)(=O)N2CCCC(C(=O)NNC(=O)CCNC(=O)/C=C/c3ccccc3)C2)cc1 (stereo not given)", "Plasmodium berghei", "> 10 µM"],
  ["O=C(CSCCCN1CCN(c2cccc(Cl)c2)CC1)N/N=C/c1ccc(Cl)cc1", "Plasmodium berghei", "> 7.09 µM"],
  ["O=C(NCCC1=CCCCC1)c1cc2ccccc2c(=O)[nH]1", "Plasmodium berghei", "> 10 µM"],
  ["CN(C)S(=O)(=O)c1ccc(SCC(=O)c2ccc(C(C)(C)C)cc2)nc1", "Plasmodium berghei", "5.05 µM"],
  ["CCOC(=O)c1c(C)[nH]c(C(=O)COC(=O)Cn2[nH]c(=O)c3ccccc3c2=O)c1C", "Plasmodium berghei", "> 10 µM"],
  ["CC1=C(C(=O)OCc2ccccc2)C(c2ccc(Cl)c([N+](=O)[O-])c2)n2nnnc2N1 (stereo not given)", "Plasmodium berghei", "> 10 µM"],
  ["Cc1c(CN2CCN(c3ccccn3)CC2)noc1-c1ccc(F)cc1", "Plasmodium berghei", "3.45 µM"],
  ["CN(C)c1cccc(-c2cnc3cnc(-c4ccc(C(=O)NC5CC5)cc4)cn23)c1", "Plasmodium berghei", "> 8.3 µM"],
  ["COC(=O)C1=C(C)NC(C)=C(C(=O)OC)C1c1cc(NC(=O)c2cccc(OC(F)F)c2)ccc1OC(F)F", "Plasmodium berghei", "8.9 µM"],
  ["COc1cc(C2CC(=O)c3cn[nH]c3C2)cc(OC)c1OC (stereo not given)", "Plasmodium berghei", "> 10.9 µM"],
  ["COc1ccc(Nc2cc(C)nc(Nc3ccc(OC)cc3)n2)cc1", "Plasmodium berghei", "3.93 µM"],
  ["C[C@]12CC[C@H](O)C[C@H]1CC[C@@H]1C2CC[C@]2(C)[C@@H](C3=CC(=O)OC3)[C@@H](O)C[C@]12O (stereo not given in full)", "Plasmodium berghei", "8.37 µM"],
  ["O=C(CSc1nnc(/C=C/c2ccc(F)cc2)[nH]1)N(c1ccccc1)C1CCCCC1", "Plasmodium berghei", "1.58 µM"],
  ["CC(C)n1ncc2c(C(=O)Nc3sccc3C#N)cc(C3CC3)nc21", "Plasmodium berghei", "> 10 µM"],
  ["COc1ccc(-c2csc3ncnc(NCCCCCc4n[nH]c(N)c4C#N)c23)cc1", "Plasmodium berghei", "3.53 µM"],
  ["O=C(/C(Br)=C/c1ccc([N+](=O)[O-])cc1)c1ccccc1", "Plasmodium berghei", "> 10 µM"],
  ["O=S(=O)(Nc1cc(-c2ccc(Cl)cc2)nn1-c1ccc(I)cc1)c1cccc(F)c1", "Plasmodium berghei", "2.83 µM"],
  ["NC(=O)c1cc(-c2ccccc2)sc1NC(=O)Nc1ccccc1F", "Plasmodium berghei", "> 10 µM"]
]}

----------
Listed here: items and their measured IC50.
# Test system: Plasmodium berghei
# test: Luciferase/luciferin-expressing antifolate-resistant parasites were used to infect a culture of HepG2 cells that were pre-incubated with compounds. Infected hepatocytes emit light due to the luciferase reaction. Assay results are presented as the percent inhibition of light emission compared to control. […]
# Assay type: functional
# condition.set: sporozoite, read-out: LUCIFERASE INFECTION ASSAY - IC50
attribute.measured: IC50

{"columns": ["molecule", "assay.system", "value"],
 "data": [
  ["Cc1nnc(N(C)CCCc2n[nH]c(N)c2C#N)c2ccccc12", "Plasmodium berghei", "> 10 µM"],
  ["CNC(=O)NC(=O)c1sc(SC)c(-c2ccon2)c1C", "Plasmodium berghei", "> 10.6 µM"],
  ["COc1cccc(CNCCCSc2nnnn2-c2ccccc2)c1", "Plasmodium berghei", "> 9.28 µM"],
  ["COc1ccc(-c2cncc(-c3ccc(N)cc3)n2)cc1", "Plasmodium berghei", "7.82 µM"],
  ["CC(C)Cc1ccc(C2=Nn3c(nnc3-c3cccs3)SC2C)cc1 (stereo unspecified)", "Plasmodium berghei", "> 7.34 µM"],
  ["CN(C)c1cccc(-c2cnc3cnc(-c4cnn(Cc5ccccc5)c4)cn23)c1", "Plasmodium berghei", "> 8.37 µM"]
]}

----------
# System: Plasmodium berghei
# test: Luciferase/luciferin-expressing antifolate-resistant parasites were used to infect a culture of HepG2 cells that were pre-incubated with compounds. Infected hepatocytes emit light due to the luciferase reaction. Assay results are presented as the percent inhibition of light emission compared to control. […]
# Format: functional
# condition.set: sporozoite, read-out: LUCIFERASE INFECTION ASSAY - IC90

{"columns": ["molecule", "assay.system", "IC90"],
 "data": [
  ["COc1cccc(/C=C(\\c2nc3ccccc3[nH]2)c2nc3ccccc3s2)c1", "Plasmodium berghei", "> 10 µM"],
  ["CCCCn1nc(C(=O)NC(c2ccccc2)c2ccc(OC)cc2)c2ccccc2c1=O (stereo not given)", "Plasmodium berghei", "> 10 µM"],
  ["O=c1cc(O)c2c(=O)n3c4c(cccc4c2o1)CCC3", "Plasmodium berghei", "> 12.3 µM"],
  ["CCc1cccc2c(C3=CCN(c4ncccn4)CC3)c[nH]c12", "Plasmodium berghei", "> 10 µM"],
  ["CC1CCN(CCOc2ccc(-c3n[nH]cc3-c3ccccc3)c(O)c2)CC1", "Plasmodium berghei", "> 8.74 µM"]
]}

----------
IC90 overview
# Test system: Plasmodium berghei
# test: Luciferase/luciferin-expressing antifolate-resistant parasites were used to infect a culture of HepG2 cells that were pre-incubated with compounds. Infected hepatocytes emit light due to the luciferase reaction. Assay results are presented as the percent inhibition of light emission compared to control. […]
# Format: functional
# condition.set: sporozoite, read-out: LUCIFERASE INFECTION ASSAY - IC90
attribute.measured: IC90

{"columns": ["compound", "value"],
 "data": [
  ["CCCN1CCc2nc(Nc3ccc(OCc4ccccc4)cc3)ncc2C1", "> 8.81 µM"],
  ["Cn1c(NCC2CC2)nc2cnc(-c3cccc(Oc4ccccc4)c3)cc21", "> 10 µM"],
  ["Cc1cc2ncc(-c3ccnc(SCC(=O)C(C)(C)C)n3)c(C)n2n1", "> 9.28 µM"],
  ["Oc1c(Cl)cc(Cl)cc1C1Nc2cccc3cccc(c23)N1", "> 9.96 µM"],
  ["O=[N+]([O-])c1c[nH]c(-c2csc(-n3nccc3C(F)(F)F)n2)c1", "4.09 µM"],
  ["O=C1C(=O)N(CN2CCc3sccc3C2c2ccccc2)c2ccc(F)cc21 (configuration not stated)", "2.51 µM"],
  ["Cc1cccc(-c2cc(NC=O)c3ncc(-c4ccc(S(C)(=O)=O)cc4)n3c2)c1", "> 8.14 µM"],
  ["CC(=O)c1c[nH]c(C(=O)OCC(=O)NCCc2ccc(C(C)C)cc2)c1", "> 2 µM"],
  ["CCn1nnnc1Sc1ncnc2scc(-c3ccc(C)cc3)c12", "> 10 µM"],
  ["Cc1cc(=O)n(-c2ccc(C(F)(F)F)cc2[N+](=O)[O-])[nH]1", "> 10 µM"],
  ["COc1ccc(C(CNc2nc(-c3cccnc3)nc3ccccc23)c2c[nH]c3ccccc23)cc1 (configuration not stated)", "> 10 µM"],
  ["Cc1ccc2nc(NC(=O)c3cc(F)c(F)cc3F)c(C(=O)NC3CCCC3)n2c1", "2.75 µM"],
  ["Cc1cc(/C=C(\\C#N)c2nnc(N3CCOCC3)n2-c2ccccc2)c(C)n1-c1cccc(C(F)(F)F)c1", "> 10 µM"],
  ["O=C(Nc1ccc(Cl)cc1)O/N=C(\\Nc1ccc(OC(F)(F)F)cc1)c1c(Cl)cccc1Cl", "> 6.36 µM"],
  ["CCc1cc(=O)n2nc(Cc3ccccc3)c(-c3ccccc3)c2[nH]1", "> 10 µM"],
  ["CN(C)c1cccc(-c2cnc3cnc(-c4ccc(C(=O)NCCO)cc4)cn23)c1", "> 8.22 µM"],
  ["Cc1cccc(-c2nc(-c3cc(C)n(-c4nnc[nH]4)c3C)cs2)c1", "> 10 µM"]
]}
